All figures here come from PubChem BioAssay (NCI).

Quick reference for TGI among some compounds
tested on: UACC-257 melanoma; test: NCI tumour cell line growth inhibition, 48 h
Use µM as the unit, but write only the number.

Known TGI results, listed for orientation:
| COMPOUND | MEASUREMENT UNIT | TGI |
| --- | --- | --- |
| CC(C)Nc1ccc(Nc2ccccc2)cc1 | µM | 31.5 |
| COC(=O)[C@H](Cc1ccccc1)NC(=O)N1CCCN(C(=O)N[C@@H](Cc2ccccc2)C(=O)OC)CCCN(C(=O)N[C@@H](Cc2ccccc2)C(=O)OC)CCC1 | µM | 35.5 |

Exercise: For `CCCCOc1ccc(NC(=O)n2nc(N)c3ccccc32)cc1` , what is its reported TGI?
Key: 73.5

###

tested on: MCF7 breast; assay: NCI tumour cell line growth inhibition, 48 h
MEASURED PROPERTY: TGI

Known TGI results, listed for orientation:
| MOLECULE | TGI |
| --- | --- |
| COC(=O)C(C)(C)OCc1ccc(C2NC(=O)N(c3cccc(Cl)c3)C(=O)N2c2cccc(Cl)c2)cc1 (stereo not given) | > 100 µM |
| CC(=O)CCc1ccc(OC2OC(COC(=O)c3cc(O)c(O)c(O)c3)C(O)C(O)C2OC(=O)/C=C/c2ccccc2)cc1 (stereo not given) | 47.1 µM |
| COP(=O)(Cc1ccc(/C=C/C#N)o1)OC | > 100 µM |
| CC(C)c1nc2cc(C(F)(F)F)ccc2[nH]c1=O | > 100 µM |
| Cc1c(C#N)c2ccccc2c2nc3ccccc3n12 | > 100 µM |

Exercise: For `Cn1cc(C2=C(c3cccc(N)c3)C(=O)NC2=O)c2ccccc21` , what is its reported TGI?
Key: > 25 µM

Exercise: Note, next up: CC(C)(C)n1c(=O)[nH]n(C2NN=Cc3cccc4cccc2c34)c1=O (stereo not given)
Key: > 100 µM

Exercise: Note, next up: `CC(C)C[C@H](NC(=O)[C@H](Cc1ccccc1)NC(=O)CCc1ccccc1)B(O)O`
Key: 0.225 µM

Exercise: Note, next up: `CCCCCCc1cc2cc(-c3nc4ccccc4[nH]3)c(=Nc3ccccc3C)oc2cc1O`
Key: > 23.8 µM

Exercise: Note, next up: `COc1cc(-c2cc(=O)c3c(OC)c(OC)c(OC)cc3o2)c(OC)c(OC)c1OC`
Key: > 75 µM

###

system: IGROV1 ovarian; test: NCI tumour cell line growth inhibition, 48 h
Quick reference for GI50 among some compounds

| MOLECULE | GI50 |
| --- | --- |
| Clc1ccc(/C=C/c2cc(N3CCOCC3)c3cc(Cl)c(Cl)cc3n2)cc1 | > 100 µM |

Exercise: For `COc1cc(-n2cc(-c3ccc(F)cc3)nc2SCc2ccccc2)cc(OC)c1OC` , what is its reported GI50?
Key: > 100 µM

Exercise: Note, next up: `CC[O-].CC[O-].O=C([CH-]C(=O)c1cccnc1)c1ccccc1.O=C([CH-]C(=O)c1cccnc1)c1ccccc1.[Ti+4]`
Key: > 100 µM

Exercise: Note, next up: `N#C/C(=N\Nc1ccc(Cl)cc1)C(=O)Nc1cc(-c2ccccc2)nn1-c1ccccc1`
Key: 4.12 µM

###

system: UACC-62 melanoma; assay: NCI tumour cell line growth inhibition, 48 h; in the data active = GI50 below about 0.43 µM; inactive = the rest
Give your call using only these classes: yes (1) = active, no (0) = inactive

These solved cases illustrate the format of a correct answer.
| MOLECULE | ASSIGNED CATEGORY |
| --- | --- |
| Oc1ccc(CN2CCC(N3CCOCC3)CC2)c2cccnc12 | no (0) |
| N#Cc1cccc(OCc2nc(N)nc(N)c2-c2ccc(Cl)c(Cl)c2)c1 | no (0) |
| COc1cccc(C2C3=C(COC3=O)N(CCO)c3cc(OC)ccc32)c1 (stereo not given) | yes (1) |
| CCC[CH2][Sn]([CH2]CCC)([O]C(=O)c1cc(F)ccc1F)[O][Sn]([CH2]CCC)([CH2]CCC)[O]C(=O)c1cc(F)ccc1F | yes (1) |

Now for a further molecule.
Exercise: Look up the recorded call for `CCCCOc1ccc(NC(=O)n2nc(N)c3ccccc32)cc1` in this test.
Key: no (0)

###

test system: M14 melanoma; assay: NCI tumour cell line growth inhibition, 48 h; in the data active means GI50 below about 0.43 µM; inactive means the rest
Give your call using only these classes: active, inactive

These solved cases illustrate the format of a correct answer.
| COMPOUND | ASSIGNED CATEGORY |
| --- | --- |
| CC(C)Nc1ccc(Nc2ccccc2)cc1 | inactive |
| COc1cc(-c2nc3sccn3c2-c2ccnc(NCCNS(=O)(=O)c3ccc(Cl)cc3)n2)ccc1F | inactive |
| N/C(=C\C(=O)n1nc(-c2ccccc2)cc1N)c1ccccc1 | inactive |
| O=c1cc(-c2ccccc2)oc2cc(O)c(O)c(O)c12 | inactive |
| COc1ccc2c(c1)=C(C=C1C=CN(O)C=C1)C(=O)N=2 | inactive |
| COc1cc2cc(C(=O)CCC(=O)O)sc2cc1OC | inactive |

Exercise: Look up the recorded call for `Cc1cc(NCCCNc2ccnc3cc(Cl)ccc23)nc(N2CCN(C)CC2)n1` in this test.
Key: inactive

Exercise: Note, next up: `CC(C)[C@H]1CC[C@H]2[C@@H](CC[C@H]3[C@](C)(CN)CCC[C@]23C)C1`
Key: inactive

Exercise: Note, next up: O=C1C2C(C(=O)[N]1[Hg][c]1cccs1)C1(Cl)C(Cl)=C(Cl)C2(Cl)C1(Cl)Cl (stereo not given)
Key: inactive

###

Quick reference for TGI among some compounds
system: NCI/ADR-RES ovarian; test: NCI tumour cell line growth inhibition, 48 h
Use µM as the unit, but write only the number.

| COMPOUND | TEST TARGET | TGI / µM |
| --- | --- | --- |
| CC(C)[C@H]1CC[C@H]2[C@@H](CC[C@H]3[C@](C)(CN)CCC[C@]23C)C1 | NCI/ADR-RES ovarian | 3.93 |

Consider now this further compound.
Exercise: For O=C1C2C(C(=O)[N]1[Hg][c]1cccs1)C1(Cl)C(Cl)=C(Cl)C2(Cl)C1(Cl)Cl (stereo not given) , what is its reported TGI?
Key: 4.8

###

Quick reference for GI50 among some molecules
tested on: EKVX NSCLC; test: NCI tumour cell line growth inhibition, 48 h

Known GI50 results, listed for orientation:
| MOLECULE | GI50 |
| --- | --- |
| CC(=O)CCc1ccc(OC2OC(COC(=O)c3cc(O)c(O)c(O)c3)C(O)C(O)C2OC(=O)/C=C/c2ccccc2)cc1 (centres undefined) | 40.3 µM |
| N#C/C(=N\Nc1ccc(Cl)cc1)C(=O)Nc1cc(-c2ccccc2)nn1-c1ccccc1 | 2.64 µM |

Exercise: For `O=c1c2c3c(sc2n2c(-c4cc(-c5ccccc5)no4)nnc2n1Cc1ccccc1)CCCC3` , what is its reported GI50?
Key: 8.63 µM

Exercise: Note, next up: `CCN1/C(=C/C=C/c2n(-c3ccccc3)c3ccc(-c4nc5ccccc5s4)cc3[n+]2CC)N(c2ccccc2)c2ccc(-c3nc4ccccc4s3)cc21`
Key: 0.387 µM

Exercise: Note, next up: `C#CCN(Cc1nc2cc(C(F)(F)F)ccc2nc1-c1ccccc1)c1ccc(OC(F)(F)F)cc1`
Key: 32.6 µM

Exercise: Note, next up: O=C1CC(c2cccc(O)c2)C2(C(=O)NC(=S)NC2=O)C(c2cccc(O)c2)C1 (centres undefined)
Key: > 100 µM

Exercise: Note, next up: `CCOc1ccccc1NC(=O)c1cc2ccccc2cc1O`
Key: 2.67 µM

Exercise: Note, next up: c1ccc(C2CC(c3cccc(Nc4ccncc4)c3)=NN2c2ccccc2)cc1 (centres undefined)
Key: 1.61 µM

Exercise: Note, next up: `Cc1ccc(NC(=O)Cc2ccc(/C=C/C(=O)c3ncc[nH]3)cc2)cc1`
Key: 13.5 µM

###

tested on: RXF 393 renal; test: NCI tumour cell line growth inhibition, 48 h
MEASURED PROPERTY: TGI (µM)
Use µM as the unit, but write only the number.

| MOLECULE | TGI (µM) |
| --- | --- |
| COc1cc2c3c(n(CCCN(CCN)CCCn4c5c(c6cc(OC)c(OC)cc6c4=O)C(=O)c4cc6c(cc4-5)OCO6)c(=O)c2cc1OC)-c1cc2c(cc1C3=O)OCO2 | 12.7 |

Consider now this further compound.
Exercise: For `Cc1ccc(O)c(C(c2ccc([N+](=O)[O-])cc2)c2cc(C)ccc2O)c1` , what is its reported TGI?
Key: 26

###

tested on: HL-60(TB) leukemia; test: NCI tumour cell line growth inhibition, 48 h; in the data active = GI50 below about 0.43 µM; inactive = the rest
Give your call using only these classes: active, inactive

Exercise: Look up the recorded call for `Cc1cc(NCCCNc2ccnc3cc(Cl)ccc23)nc(N2CCN(C)CC2)n1` in this test.
Key: inactive

Exercise: Note, next up: `CC(C)[C@H]1CC[C@H]2[C@@H](CC[C@H]3[C@](C)(CN)CCC[C@]23C)C1`
Key: inactive

Exercise: Note, next up: `O=S(=O)(Cc1ccc(Cl)cc1Cl)c1ccc(Cl)cc1`
Key: active

Exercise: Note, next up: `Clc1ccc(/C=C/c2cc(N3CCOCC3)c3cc(Cl)c(Cl)cc3n2)cc1`
Key: active

Exercise: Note, next up: `CCCc1cc(O)c2c3c(c(=O)oc2c1)CN(C)CC3`
Key: inactive
